Quick reference: receptor occupancy at 100 µM of the listed items.
biological target: Recombinant p62 protein (Homo sapiens); assay: Surface plasmon resonance (SPR) compound binding to p62; settings: 15° C
Sequence (Q13501 whole entry, species assumed): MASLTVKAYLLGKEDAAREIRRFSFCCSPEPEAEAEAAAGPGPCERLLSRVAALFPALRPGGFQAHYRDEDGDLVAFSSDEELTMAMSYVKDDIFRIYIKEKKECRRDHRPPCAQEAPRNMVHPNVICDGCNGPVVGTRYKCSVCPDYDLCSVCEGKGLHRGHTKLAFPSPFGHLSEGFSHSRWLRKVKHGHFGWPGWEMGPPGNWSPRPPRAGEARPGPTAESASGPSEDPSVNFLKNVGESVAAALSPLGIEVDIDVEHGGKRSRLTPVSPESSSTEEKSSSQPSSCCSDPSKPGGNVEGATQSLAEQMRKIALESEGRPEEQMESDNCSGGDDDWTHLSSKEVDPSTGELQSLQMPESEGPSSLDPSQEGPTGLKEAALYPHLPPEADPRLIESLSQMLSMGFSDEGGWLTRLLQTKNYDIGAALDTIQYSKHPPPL

QUERY: For the compound shown here, O=C(CCO)NCc1cccc2c1ccn2Cc1ccccc1 , give the reported receptor occupancy at 100 µM.
RESULT: < 30%

QUERY: Repeat for the following compound: OCCNCc1cc(F)cc2c1ccn2Cc1ccc(Cl)cc1
RESULT: 30 to 70%

QUERY: Repeat for the following compound: OC1CC(NCc2cccc3c2ccn3Cc2ccccc2)C1 (stereo not drawn)
RESULT: < 30%

Next:
QUERY: For the compound shown here, OCCNCc1cccc2c1ccn2Cc1cccc(Cl)c1 , give the reported receptor occupancy at 100 µM.
RESULT: 30 to 70%

QUERY: Repeat for the following compound: OCCNCc1c(Cl)ccc2c1ccn2Cc1ccccc1
RESULT: 30 to 70%

QUERY: Repeat for the following compound: OCCNCc1cccc2c1ccn2Cc1c[nH]cn1
RESULT: 30 to 70%

QUERY: Repeat for the following compound: OCCNCc1cc(F)cc2c1ccn2Cc1ccccc1
RESULT: > 70%
